Recorded values, source paper PMC8809517.

Biological target: T1, GFP-9S library array, motif 4 ND N98Y;D124M (synthetic construct, N98Y;D124M)
T1 chain: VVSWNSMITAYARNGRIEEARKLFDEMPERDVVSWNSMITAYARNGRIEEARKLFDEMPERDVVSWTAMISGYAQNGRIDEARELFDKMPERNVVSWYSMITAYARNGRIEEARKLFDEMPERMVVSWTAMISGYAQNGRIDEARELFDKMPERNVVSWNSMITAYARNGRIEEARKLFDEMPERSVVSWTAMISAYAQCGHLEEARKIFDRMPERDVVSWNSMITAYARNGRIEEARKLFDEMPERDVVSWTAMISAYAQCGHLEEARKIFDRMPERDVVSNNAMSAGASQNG
Assay: high-throughput RNA pulldown from lysate on Ni-NTA beads; HRP: 50 mM Tris pH 8, 150 mM NaCl, 1 mM beta-mercaptoethanol, 50 ug/ml BSA, 3 ug/ml yeast RNA, 0.5% heparin; ITC and FP: Tris pH 8, 200 mM KCl, 5% glycerol; MST: 50 mM Tris pH 8, 200 mM NaCl, 1 mM DTT, BSA, heparin, 0.05% Tween 20
Settings: tags: N-terminal His-eGFP; label: 5' IRDye 800CW
property: pKd
Entry type: numeric. Quantity: pKd, the -log10 of concentration in molar units.

Query: Look up pKd for this binder: AUUAAACGUGA (ssRNA) [IR-rpoA-A]
Response: 6.91

Query: Look up pKd for this binder: AUUAUACGUGA (ssRNA) [IR-rpoA-U]
Response: 6.81
